Target: T1, human LAP-TGFB1 Fc fusion (human)
T1 construct: also called human LAP-TGFβ1-Fc; human LAP-TGFβ-Fc isoform 1
T1 sequence (chain, as listed by the source limits assumed): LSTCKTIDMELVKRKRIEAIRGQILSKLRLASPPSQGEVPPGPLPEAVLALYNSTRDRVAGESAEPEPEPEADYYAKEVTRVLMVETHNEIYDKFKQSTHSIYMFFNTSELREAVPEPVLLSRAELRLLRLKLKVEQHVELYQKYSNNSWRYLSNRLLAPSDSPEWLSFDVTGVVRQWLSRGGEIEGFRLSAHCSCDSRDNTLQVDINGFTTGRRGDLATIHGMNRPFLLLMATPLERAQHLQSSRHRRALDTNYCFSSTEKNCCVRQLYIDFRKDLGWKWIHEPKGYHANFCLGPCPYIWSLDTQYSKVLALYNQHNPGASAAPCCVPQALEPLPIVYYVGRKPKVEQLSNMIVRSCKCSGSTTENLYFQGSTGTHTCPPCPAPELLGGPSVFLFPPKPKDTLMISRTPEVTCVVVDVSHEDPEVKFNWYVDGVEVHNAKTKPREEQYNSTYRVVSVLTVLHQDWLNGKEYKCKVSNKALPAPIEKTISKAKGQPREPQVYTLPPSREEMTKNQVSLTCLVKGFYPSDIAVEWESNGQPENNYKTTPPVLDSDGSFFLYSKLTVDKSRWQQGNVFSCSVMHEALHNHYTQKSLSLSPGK
Assay: SPR, antigen-Fc captured, Fab analyte
Protocol: This Example describes the isoform specificity of the yeast display mutants to bind to human LAP-TGFβ isoforms 1, 2, and 3 using surface plasmon resonance. […] Binding rate constants were determined by fitting the data with a 1:1 binding model (GE Healthcare Biacore T200 Evaluation software 3.0).
measurement-kind: kon (M⁻¹ s⁻¹)
Give your result in M⁻¹ s⁻¹ as a bare value.

Guide cases for kon, answers given:
# binder, endpoint-result
records = [
    ("59BJN (Fab, V domains shown, also called VH W33Q M34V / VL T30Y (59BJN)) VH: EVQLVQSGAEVKKPGASVKVSCKASGYTFTSYQVHWVRQAPGQGLEWMGRIDPQSGGIKYAQKFQGRATLTVDTSTSTAYMELSRLRSDDTAVYYCARWDYGGYFDVWGQGTLVTVSS VL: DIQMTQSPSSLSASVGDRVTITCRASQDIYNYLNWYQQKPGKAVKLLIYYTSRLHSGVPSRFSGSGSGTDYTLTISSLQPEDFATYFCQQGDTLPWTFGQGTKLEIKR", "2.24e+06"),
    ("68BJN (Fab, V domains shown, also called VH H35Q S55D S57D W99Y / VL T30Y R53V (68BJN)) VH: EVQLVQSGAEVKKPGASVKVSCKASGYTFTSYWMQWVRQAPGQGLEWMGRIDPQDGDIKYAQKFQGRATLTVDTSTSTAYMELSRLRSDDTAVYYCARYDYGGYFDVWGQGTLVTVSS VL: DIQMTQSPSSLSASVGDRVTITCRASQDIYNYLNWYQQKPGKAVKLLIYYTSVLHSGVPSRFSGSGSGTDYTLTISSLQPEDFATYFCQQGDTLPWTFGQGTKLEIKR", "4.36e+06"),
    ("71BJN (Fab, V domains shown, also called VH W33D S55T G57D Y104Q / VL T30Y R53G (71BJN)) VH: EVQLVQSGAEVKKPGASVKVSCKASGYTFTSYDMHWVRQAPGQGLEWMGRIDPQTGDIKYAQKFQGRATLTVDTSTSTAYMELSRLRSDDTAVYYCARWDYGGQFDVWGQGTLVTVSS VL: DIQMTQSPSSLSASVGDRVTITCRASQDIYNYLNWYQQKPGKAVKLLIYYTSGLHSGVPSRFSGSGSGTDYTLTISSLQPEDFATYFCQQGDTLPWTFGQGTKLEIKR", "2.71e+06"),
    ("82BJN (Fab, V domains shown, also called VH W33Y H35N I58V D100H Y104Q / VL T30Y R53G (82BJN)) VH: EVQLVQSGAEVKKPGASVKVSCKASGYTFTSYYMNWVRQAPGQGLEWMGRIDPQSGGVKYAQKFQGRATLTVDTSTSTAYMELSRLRSDDTAVYYCARWHYGGQFDVWGQGTLVTVSS VL: DIQMTQSPSSLSASVGDRVTITCRASQDIYNYLNWYQQKPGKAVKLLIYYTSGLHSGVPSRFSGSGSGTDYTLTISSLQPEDFATYFCQQGDTLPWTFGQGTKLEIKR", "2.81e+06"),
]

Prompt: For the binder 73BJN (Fab, V domains shown, also called VH W33D / VL T30Y (73BJN)) VH: EVQLVQSGAEVKKPGASVKVSCKASGYTFTSYDMHWVRQAPGQGLEWMGRIDPQSGGIKYAQKFQGRATLTVDTSTSTAYMELSRLRSDDTAVYYCARWDYGGYFDVWGQGTLVTVSS VL: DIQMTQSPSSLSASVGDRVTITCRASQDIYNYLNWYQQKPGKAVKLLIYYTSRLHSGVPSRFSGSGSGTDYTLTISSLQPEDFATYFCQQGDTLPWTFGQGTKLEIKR , report kon.
Response: 5.15e+06

Prompt: For the binder 79BJN (Fab, V domains shown, also called VH W33D S55D S57D I58V / VL T30Y R53G T93E (79BJN)) VH: EVQLVQSGAEVKKPGASVKVSCKASGYTFTSYDMHWVRQAPGQGLEWMGRIDPQDGDVKYAQKFQGRATLTVDTSTSTAYMELSRLRSDDTAVYYCARWDYGGYFDVWGQGTLVTVSS VL: DIQMTQSPSSLSASVGDRVTITCRASQDIYNYLNWYQQKPGKAVKLLIYYTSGLHSGVPSRFSGSGSGTDYTLTISSLQPEDFATYFCQQGDELPWTFGQGTKLEIKR , report kon.
Response: 5.84e+06

Prompt: For the binder 81BJN (Fab, V domains shown, also called VH S31E W33D K59R Y104Q V107A / VL T30Y R53V (81BJN)) VH: EVQLVQSGAEVKKPGASVKVSCKASGYTFTEYDMHWVRQAPGQGLEWMGRIDPQSGGIRYAQKFQGRATLTVDTSTSTAYMELSRLRSDDTAVYYCARWDYGGQFDAWGQGTLVTVSS VL: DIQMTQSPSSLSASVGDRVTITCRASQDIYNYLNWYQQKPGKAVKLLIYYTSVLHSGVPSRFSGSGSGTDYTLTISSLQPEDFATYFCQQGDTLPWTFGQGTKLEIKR , report kon.
Response: 4.08e+06
